# Tested on: HCT-116 (human colon carcinoma)
# test method notes: PI3K viability assay, HCT-116 cells
# Format: cell-based
# experimental parameters: HCT-116, 4 hours treatment, wash out, viability 72 hrs post wash out, Run 1, read-out: IC50 HCT-116 Run 1
pIC50: −log10 of the molar value.
property measured: pIC50

[
  {
    "compound": "COc1ccc(-c2cc3c(C)nc(N)nc3n([C@H]3CC[C@H](OCCOC(=O)N4CCC(CCn5ccc6cc(-n7c(O)nnc7-c7cc(C(C)C)c(O)cc7O)ccc65)CC4)CC3)c2=O)cn1",
    "study target": "HCT-116 (human colon carcinoma)",
    "property measured": "pIC50",
    "measured result": 4.99
  },
  {
    "compound": "COc1ncc(-c2ccc3nccc(-c4ccnnc4)c3c2)cc1NS(=O)(=O)c1ccc(F)cc1F [GSK-2126458, Omipalisib, reference compound]",
    "study target": "HCT-116 (human colon carcinoma)",
    "property measured": "pIC50",
    "measured result": 5.82
  },
  {
    "compound": "COc1c(OCCCN2CCOCC2)ccc2c1N=C(NC(=O)c1cnc(N)nc1)N1CCN=C21 [BAY80-6946, Copanlisib, reference compound]",
    "study target": "HCT-116 (human colon carcinoma)",
    "property measured": "pIC50",
    "measured result": 5.47
  },
  {
    "compound": "COc1ccc(-c2cc3c(C)nc(N)nc3n([C@H]3CC[C@H](OCCO)CC3)c2=O)cn1 [PF-04691502, reference compound]",
    "study target": "HCT-116 (human colon carcinoma)",
    "property measured": "pIC50",
    "measured result": 4.34
  }
]
